I'd be grateful if you could share measured IC50 for these entries.
test: Cytotoxicity against human multidrug-resistant KB-C2 cells after 48 hrs by MTT assay; assay type: functional, cell-based; conditions: KB-C2, 48 h

Let me know recorded IC50 for `CCCCCCCCOC(=O)CC(=O)O[C@@H]1CC[C@]2(C)[C@H]3CC[C@@H]4[C@@H]([C@]5(C)CC[C@H](C(C)(C)O)O5)CC[C@@]4(C)[C@]3(C)CC[C@H]2C1(C)C` , thanks. > 100 µM

Let me know recorded IC50 for `COc1ccc(OC)c(NC(=O)CC(=O)O[C@@H]2CC[C@]3(C)[C@H]4C[C@@H](OC(C)=O)[C@@H]5[C@@H]([C@]6(C)CC[C@H](C(C)(C)O)O6)CC[C@@]5(C)[C@]4(C)CC[C@H]3C2(C)C)c1` , thanks. > 100 µM

Let me know recorded IC50 for `CCCOC(=O)CC(=O)O[C@@H]1CC[C@]2(C)[C@H]3CC[C@@H]4[C@@H]([C@]5(C)CC[C@H](C(C)(C)O)O5)CC[C@@]4(C)[C@]3(C)CC[C@H]2C1(C)C` , thanks. > 100 µM

* * *

tested on: KB-C2; experiment: Inhibition of P-gp-mediated multidrug-resistance in human KB-C2 cells assessed as increase in colchicine-induced cytotoxicity at 1 ug/ml after 48 hrs by MTT assay; format: cell-based
I'd be grateful if you could share measured fold change (FC) for these entries.
Format: numeric value only, no unit, no commentary.

Let me know recorded fold change (FC) for `CC(=O)O[C@@H]1C[C@@H]2[C@@]3(C)CC[C@@H](OC(=O)CC(=O)N4CCOCC4)C(C)(C)[C@@H]3CC[C@@]2(C)[C@]2(C)CC[C@H]([C@]3(C)CC[C@H](C(C)(C)O)O3)[C@@H]12` , thanks. 17.4

Let me know recorded fold change (FC) for `CC(=O)O[C@@H]1C[C@@H]2[C@@]3(C)CC[C@@H](OC(=O)CC(=O)NC(C)(C)C)C(C)(C)[C@@H]3CC[C@@]2(C)[C@]2(C)CC[C@H]([C@]3(C)CC[C@H](C(C)(C)O)O3)[C@@H]12` , thanks. 1.1

Let me know recorded fold change (FC) for `COC(=O)CC(=O)O[C@@H]1CC[C@]2(C)[C@H]3CC[C@@H]4[C@@H]([C@]5(C)CC[C@H](C(C)(C)O)O5)CC[C@@]4(C)[C@]3(C)CC[C@H]2C1(C)C` , thanks. 1.1
